# EXPERIMENTAL_PROTOCOL: plasma pharmacokinetics (HPLC-MS/MS, population PK model)
# CONDITION_SUMMARY: human, intravenous, 50 mg/m^2
MEASUREMENT_LABEL: concentration at 4 h (µg/mL)
The answer is to be given in µg/mL; state only the numeric part.

Challenge: Find the recorded concentration at 4 h belonging to `CCc1cnn2c(NCc3ccc[n+]([O-])c3)cc(N3CCCC[C@H]3CCO)nc12` and report it.
Response given: 0.139

Data origin: paper PMC3784060
